tested on: Aspergillus flavus; assay: Antifungal activity against Aspergillus flavus by broth dilution technique; assay type: functional
Active and inactive are the calls of the source. The rule behind the calls is not given here.
measuredQuantity: MIC

structureString	measuredQuantity	result
C/C(=N/Nc1ccc(Cl)cc1)c1c(O)ccc2c(C)cc(=O)oc12	MIC	50 µg/mL
C/C(=N/Nc1ccccc1)c1c(O)ccc2c(C)cc(=O)oc12	MIC	75 µg/mL
COc1ccccc1N/N=C(/C)c1c(O)ccc2c(C)cc(=O)oc12	MIC	40 µg/mL
COc1ccccc1-n1cc(C=O)c(-c2c(O)ccc3c(C)cc(=O)oc23)n1	MIC	25 µg/mL
C[C@@H]1[C@H](O)[C@@H](C)/C=C/C=C/C=C/C=C/C=C/C=C/C=C/[C@H](O[C@@H]2O[C@H](C)[C@@H](O)[C@H](N)[C@@H]2O)C[C@@H]2O[C@](O)(C[C@@H](O)C[C@@H](O)[C@H](O)CC[C@@H](O)C[C@@H](O)CC(=O)O[C@H]1C)C[C@H](O)[C@H]2C(=O)O	MIC	50 µg/mL
C/C(=N/Nc1ccc([N+](=O)[O-])cc1[N+](=O)[O-])c1c(O)ccc2c(C)cc(=O)oc12	MIC	inactive
Cc1cc(=O)oc2c(-c3nn(-c4ccc(Cl)cc4)cc3C=O)c(O)ccc12	MIC	60 µg/mL
Cc1cc(=O)oc2c(-c3nn(-c4ccc([N+](=O)[O-])cc4[N+](=O)[O-])cc3C=O)c(O)ccc12	MIC	inactive

---

test system: Staphylococcus aureus; assay: Antibacterial activity against Staphylococcus aureus by broth dilution technique; type: functional
measuredQuantity: MIC

> print(dat)
                            structurestring      measurementtarget    result
1  C/C(=N/Nc1ccc([N+](=O)[O-])cc1[N+](=O)[O-])c1c(O)ccc2c(C)cc(=O)oc12  Staphylococcus aureus  50 µg/mL
2  Cc1cc(=O)oc2c(-c3nn(-c4ccc([N+](=O)[O-])cc4[N+](=O)[O-])cc3C=O)c(O)ccc12  Staphylococcus aureus  40 µg/mL
3  C/C(=N/Nc1ccccc1)c1c(O)ccc2c(C)cc(=O)oc12  Staphylococcus aureus  40 µg/mL
4  Cc1cc(=O)oc2c(-c3nn(-c4ccc(Cl)cc4)cc3C=O)c(O)ccc12  Staphylococcus aureus  15 µg/mL
5  C/C(=N/Nc1ccccc1C)c1c(O)ccc2c(C)cc(=O)oc12  Staphylococcus aureus  40 µg/mL
6  COc1ccccc1-n1cc(C=O)c(-c2c(O)ccc3c(C)cc(=O)oc23)n1  Staphylococcus aureus  30 µg/mL
7  Cc1ccccc1-n1cc(C=O)c(-c2c(O)ccc3c(C)cc(=O)oc23)n1  Staphylococcus aureus  30 µg/mL
8  C/C(=N/Nc1ccc(Cl)cc1)c1c(O)ccc2c(C)cc(=O)oc12  Staphylococcus aureus  20 µg/mL
9  COc1ccccc1N/N=C(/C)c1c(O)ccc2c(C)cc(=O)oc12  Staphylococcus aureus  30 µg/mL

---

test system: Radical scavenging activity; assay: Antioxidant activity assessed as DPPH radical scavenging activity at 10 ug/ml relative to butylated hydroxytoluene; type: functional
# reported Activity; entries follow
measuredQuantity: Activity

> print(dat)
                            structurestring  measuredquantity  result
1  COc1ccccc1-n1cc(C=O)c(-c2c(O)ccc3c(C)cc(=O)oc23)n1          Activity   11.1%
2  Cc1ccccc1-n1cc(C=O)c(-c2c(O)ccc3c(C)cc(=O)oc23)n1          Activity   12.8%
3  Cc1cc(=O)oc2c(-c3nn(-c4ccc([N+](=O)[O-])cc4[N+](=O)[O-])cc3C=O)c(O)ccc12          Activity   34.7%
4  Cc1cc(=O)oc2c(-c3nn(-c4ccc(Cl)cc4)cc3C=O)c(O)ccc12          Activity   48.9%
5  Cc1cc(=O)oc2c(-c3nn(-c4ccccc4)cc3C=O)c(O)ccc12          Activity   39.4%
